Source: the array DNA melting data of Ke et al. (doi:10.1101/2024.01.08.574731)

assayProtocol: melting temperature; fluorescence melt of hairpins on a sequencing array, two-state fit, raised by 9.35 °C to match UV melts
measurementSetup: sodium 0.088 M
attributeMeasured: Tm (°C)
Numbers only, in °C.

1) GCTTCGGCGAAAGCCAGC (((..(((....))))))
40.2
2) GATCCGGGTCCGGATC ((((((....))))))
62.5
3) GAGCCAGAAATGGCTC ((((((....))))))
66.8
4) GATGGCGGAAACGCTATC (((.(((....))).)))
52
5) GGTAAGCCGAAAGGCACC (((..(((....))))))
42
6) GCCGGCGAAAGCCCCGGC ((((((....)))..)))
55.2

Look at each sequence and report its Tm.
1. GATCCACGAAAGTGAATC (((.(((....))).)))
2. GAGTCAGGAAACCGACTC (((((.(....).)))))
3. GCTGGCGAAAGCCCTAGC ((((((....)))..)))
4. GTGTTAGAAATAACAC ((((((....))))))
5. GTAATCGGAAACGACTAC (((.(((....))).)))
6. GATCGATTGTTCGATC ((((((....))))))

[42.4, 46.6, 40.9, 47.1, 34.3, 53.1]

====

assayProtocol: folding enthalpy; higher = less favourable; fluorescence melt of hairpins on a sequencing array, two-state fit
measurementSetup: sodium 0.088 M
Is folding enthalpy at least -20 kcal/mol? Then 1. If not, -1.

Past entries and their recorded results:
1. GTGATTCGAAAGAACCAC (((.(((....))).)))
-1
2. GATGTCGGAAACAACATC (((((.(....).)))))
-1
3. GCACCGCGAAAGCTATGC (((..((....))..)))
1
4. GTAAAGCCGAAAGGCTAC (((..(((....))))))
1
5. CGGTCGGAAACGAAGCCG ((((((....)))..)))
-1

hey, is folding enthalpy for this one >= -20 kcal/mol? GCGACCGGAAACGGTCAC (.(((((....))))).)
1

What do you get for GATCAGCTAACTGATC ((((((....)))))) ?
-1

What do you get for GCGCAGGGAAACCCGCGC ((((.((....)).)))) ?
-1

What do you get for GACGGCGAAAGCCTAGTC ((((((....)))..))) ?
1

What do you get for GATCCAAACATGGATC ((((((....)))))) ?
-1

What do you get for GCTCTCGAAAGAGTAGC ((((((....))).))) ?
-1

What do you get for GTCGCCGAAAGGCGTGAC ((((((....)))..))) ?
1

====

assayProtocol: melting temperature; fluorescence melt of hairpins on a sequencing array, two-state fit, raised by 9.35 °C to match UV melts
measurementSetup: sodium 0.088 M
Tm strictly less than 40 °C = Satisfied. Otherwise Not satisfied.

Past entries and their recorded results:
1) GATTGAGGAAACTTGATC (((..((....))..)))
Satisfied
2) GAAAAGGGAAACTTTTTC (((((.(....).)))))
Satisfied
3) GTGGAGCGAAAGCTCAC (((.(((....))))))
Not satisfied

Lab log: compare recorded Tm with 40 °C; is it strictly lower for TTTGGGAAACCAAA (((((....))))) ?
Satisfied

What do you get for GGTTGTGGAAACACAGCC ((.((((....)))).)) ?
Not satisfied

What do you get for GATCTGTCGGCAGATC ((((((....)))))) ?
Not satisfied

What do you get for GCGTCGCAACGC ((((....)))) ?
Not satisfied

What do you get for GTGGGTGGAAACGCCTAC ((.((.(....).)).)) ?
Not satisfied

What do you get for GCGGCTGGAAACAGTCGC (((.(((....))).))) ?
Not satisfied

What do you get for GCTCTCGAAAGAGACAGC ((((((....)))..))) ?
Satisfied
